The entries that follow carry pIC50 values tested on Histone deacetylase 2 (Homo sapiens, UniProt Q92769), drawn from several published reports.
Sequence (Q92769 whole entry): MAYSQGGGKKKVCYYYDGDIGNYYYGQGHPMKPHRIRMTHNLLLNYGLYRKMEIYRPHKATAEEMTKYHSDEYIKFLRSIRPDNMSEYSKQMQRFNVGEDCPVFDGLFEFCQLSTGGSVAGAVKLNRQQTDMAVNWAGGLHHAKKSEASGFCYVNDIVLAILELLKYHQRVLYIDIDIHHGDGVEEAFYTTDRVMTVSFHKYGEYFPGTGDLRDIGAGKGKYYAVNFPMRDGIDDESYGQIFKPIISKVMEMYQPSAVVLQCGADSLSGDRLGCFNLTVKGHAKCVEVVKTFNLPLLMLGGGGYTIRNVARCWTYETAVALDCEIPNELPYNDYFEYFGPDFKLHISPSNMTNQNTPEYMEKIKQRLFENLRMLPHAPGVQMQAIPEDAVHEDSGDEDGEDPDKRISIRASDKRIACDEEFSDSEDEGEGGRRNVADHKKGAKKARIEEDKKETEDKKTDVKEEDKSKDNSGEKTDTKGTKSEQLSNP
Answer as the number alone; pIC50 is minus log10 of concentration in mol/L.

INSERT INTO results (compound, quantitymeasured, numericresult) VALUES
  ('O=C(CCCCc1nnc(-c2cc3c([nH]c4ccccc43)c(-c3ccc(C(F)(F)F)cc3)n2)o1)NO', 'pIC50', 8.66);

Lookup: Please provide the recorded pIC50 for O=C1CC[C@H](C(=O)N[C@@H](CCCCCS)C(=O)Nc2cccc(C(F)(F)F)c2)N1 , tested on Histone deacetylase 2 (Homo sapiens, UniProt Q92769).
Found: 7.92

Lookup: Please provide the recorded pIC50 for CCOc1cc(NC(=O)CCCCCC(=O)Nc2cc(-c3ccccc3)ccc2N)cc2c1OCC([N+](=O)[O-])=C2 , tested on Histone deacetylase 2 (Homo sapiens, UniProt Q92769).
Found: 6.18

Lookup: Please provide the recorded pIC50 for CN1C(=O)Cc2cc(C(=O)Nc3cc(-c4cccs4)ccc3N)ccc21 , tested on Histone deacetylase 2 (Homo sapiens, UniProt Q92769).
Found: 8.00

Lookup: Please provide the recorded pIC50 for O=C(CCC1C(=O)N(c2ccc(Cl)cc2)C(=O)N1Cc1ccc(Br)cc1)Nc1ccc(C(=O)NO)cc1 (stereo not drawn) , tested on Histone deacetylase 2 (Homo sapiens, UniProt Q92769).
Found: 6.60

###

The entries that follow carry pIC50 values tested on Histone deacetylase 2 (Homo sapiens), drawn from several published reports.
Answer as the number alone; pIC50 is minus log10 of concentration in mol/L.

Reference set, count: 3
INSERT INTO assay_data (compoundsmiles, quantitymeasured, numericresult) VALUES
  ('Nc1ccccc1NC(=O)CCCCCCNC(=O)c1ccc(NC(=O)Nc2ccc(-c3nc(N4CCOCC4)nc(N4CCOCC4)n3)cc2)cc1', 'pIC50', 6.53),
  ('Cc1cccc(NC(=O)[C@H](CCCCCS)NC(=O)[C@H]2CCC(=O)N2)c1', 'pIC50', 7.85),
  ('O=C(CCCCCCn1cc(Nc2ncc(Cl)c(Nc3cccc(Cl)c3)n2)cn1)NO', 'pIC50', 6.89);

Lookup: Please provide the recorded pIC50 for O=C(NO)c1ccc(Cn2ccc3cc(C(=O)c4ccc(F)cc4)ccc32)cc1 , tested on Histone deacetylase 2 (Homo sapiens).
Found: 5.29

Lookup: Please provide the recorded pIC50 for Cc1[nH]c2ccccc2c1CCNCc1ccc(/C=C/C(=O)NN(C)C)cc1 , tested on Histone deacetylase 2 (Homo sapiens).
Found: 4.89

Lookup: Please provide the recorded pIC50 for [N-]=[N+]=NCc1cc(Cn2cc(NC(=O)CCCCCCC(=O)NO)cn2)cc(N=[N+]=[N-])c1 , tested on Histone deacetylase 2 (Homo sapiens).
Found: 6.00

Lookup: Please provide the recorded pIC50 for O=CN(O)CCCCCCCC(=O)Nc1ccccc1 , tested on Histone deacetylase 2 (Homo sapiens).
Found: 5.11

###

The entries that follow carry IC50 values tested on Histone deacetylase 2 (Homo sapiens), drawn from several published reports.
Field: numeric (nM). Do not append units.

Reference set, count: 2
INSERT INTO assay_data (compoundsmiles, quantitymeasured, numericresult) VALUES
  ('CN(C)CCCNC(=O)c1cc(NC(=O)c2cc(NC(=O)c3cc(NC(=O)c4nc(NC(=O)CCCNC(=O)c5cc(NC(=O)c6cc(NC(=O)c7cc(NC(=O)c8nc(NC(=O)CCNC(=O)CCNC(=O)c9ccc(NC(=O)CCCCCCC(=O)NO)cc9)cn8C)cn7C)cn6C)cn5C)cn4C)cn3C)cn2C)cn1C', 'IC50', 770),
  ('COc1cc(C(=O)c2ccc3c(ccn3S(=O)(=O)c3cccc(/C=C/C(=O)NO)c3)c2)cc(OC)c1OC', 'IC50', 1770);

Lookup: I would be grateful if you could share the reported IC50 for O=C(COc1ccc(CNCCc2c[nH]c3ccccc23)c(F)c1)NO .
Found: 3.1

Lookup: I would be grateful if you could share the reported IC50 for O=C(CCCCCCCOc1cccc(-c2nc3ccccc3[nH]2)c1)NO .
Found: 91

###

pIC50: −log10 of the molar value.
The entries that follow carry pIC50 values tested on UniProtKB Q92769, drawn from several published reports.

Reference set, count: 2
INSERT INTO assay_data (compoundsmiles, experimentalsystem, result) VALUES
  ('CC(=O)SCC(=O)/C=C/c1ccc(-c2ccccc2)cc1', 'UniProtKB Q92769', '< 5.30'),
  ('C#CCN1C(=O)/C(=C2\Nc3ccccc3\C2=N/OCCCC(=O)NO)c2ccccc21', 'UniProtKB Q92769', '< 4.00');

Attention now shifts to the item below.
Lookup: Please provide the recorded pIC50 for Cc1cccc(C(=O)NO)c1 , tested on UniProtKB Q92769.
Found: < 4.48

###

The entries that follow carry log10 of IC50 values tested on Histone deacetylase 2 (Homo sapiens), drawn from several published reports.
Values reflect log10 of reported IC50 (nM).

Reference set, count: 3
INSERT INTO measurements (compound, quantitymeasured, numericresult) VALUES
  ('O=C(CCCCCCC(=O)Nc1ccc2c(c1)CCC(=O)N2)NO', 'log10 of IC50', 1.26),
  ('O=C(CCCCCCNC(=O)c1ccc2[nH]c(=O)ccc2c1)NO', 'log10 of IC50', 1.40),
  ('COc1ccc2cc(C(=O)NCCCCCCC(=O)NO)ccc2n1', 'log10 of IC50', 2.23);

Lookup: Please provide the recorded log10 of IC50 for CCN1CCN(C(=O)NCc2ccc(C(=O)Nc3cc(-c4cccs4)ccc3N)cc2)C(=O)C1=O , tested on Histone deacetylase 2 (Homo sapiens).
Found: 2.83

Lookup: Please provide the recorded log10 of IC50 for Cc1cccc(C(=O)NOCCCCCC(=O)NO)c1 , tested on Histone deacetylase 2 (Homo sapiens).
Found: 3.14

Lookup: Please provide the recorded log10 of IC50 for COc1cc2c(cc1OC)C(=O)C(CC1CCN(Cc3ccc(NC(=O)CCCCCCC(=O)NO)cc3)CC1)C2 (stereo not given) , tested on Histone deacetylase 2 (Homo sapiens).
Found: 2.85

Lookup: Please provide the recorded log10 of IC50 for COc1ccc(C(=O)N[C@H](COc2ccc(/C=C/C(=O)NO)cc2OC)Cc2c[nH]c3ccccc23)cc1 , tested on Histone deacetylase 2 (Homo sapiens).
Found: 1.77

Lookup: Please provide the recorded log10 of IC50 for COc1ccc2c(c1)/C(=C1/Nc3ccccc3/C1=N\O)C(=O)N2Cc1ccc(C(=O)NO)cc1 , tested on Histone deacetylase 2 (Homo sapiens).
Found: 1.49

Lookup: Please provide the recorded log10 of IC50 for CC(C)(C)OC(=O)Nc1ccc(-c2cc(C(=O)NCCCCC(=O)NO)no2)cc1 , tested on Histone deacetylase 2 (Homo sapiens).
Found: 3.24

###

The entries that follow carry IC50 values tested on Histone deacetylase 2 (Homo sapiens), drawn from several published reports.
// returns false (0) unless IC50 is strictly below 2000 nM, in which case true (1)

INSERT INTO assay_data (compound, experimentalsystem, categorylabel) VALUES
  ('NC(=O)C1CCCc2c(-c3ccc(Cl)c(Cl)c3)n[nH]c21 (racemic)', 'Histone deacetylase 2 (Homo sapiens)', 'false (0)'),
  ('CC1(C)C(=O)N(c2ccc(C#N)c(C(F)(F)F)c2)C(=S)N1c1ccc(C(=O)NCCCCCCn2cccc(O)c2=O)c(F)c1', 'Histone deacetylase 2 (Homo sapiens)', 'false (0)'),
  ('CC1(C)CC(=O)Nc2ccc(NC(=O)CCCCCCC(=O)NO)cc21', 'Histone deacetylase 2 (Homo sapiens)', 'true (1)'),
  ('N[C@@H](Cc1ccc(O)cc1)C(=O)Nc1ccccc1-c1ccc(NC(=O)CCCCCCC(=O)NO)cc1', 'Histone deacetylase 2 (Homo sapiens)', 'true (1)'),
  ('Cc1ccc(-c2cc(C(F)(F)F)nn2-c2ccc(S(=O)(=O)NCCCCCCCC(=O)NO)cc2)cc1', 'Histone deacetylase 2 (Homo sapiens)', 'true (1)'),
  ('COc1cccc(C(=O)c2ccc3c(ccn3Cc3ccc(C(=O)NO)cc3)c2)c1', 'Histone deacetylase 2 (Homo sapiens)', 'false (0)'),
  ('COc1nc(-c2ccc(NC(=O)Nc3ccc(C(=O)Nc4ccc(F)c(F)c4N)cc3)cc2)nc(N2CCOCC2)n1', 'Histone deacetylase 2 (Homo sapiens)', 'false (0)'),
  ('O=C(/C=C/c1ccc2c(c1)C(=O)NC1(CCN(Cc3ccccc3)CC1)O2)NO', 'Histone deacetylase 2 (Homo sapiens)', 'true (1)');

Moving on to the next compound.
Lookup: Decide: IC50 of Nc1ccccc1NC(=O)CCCCCCC(=O)Nc1ccc2c(c1)/C(=C/c1ccc[nH]1)C(=O)N2 strictly below 2000 nM?
Found: false (0)

###

The entries that follow carry IC50 values tested on Histone deacetylase 2 (Homo sapiens, UniProt Q92769), drawn from several published reports.

Reference set, count: 3
INSERT INTO assay_data (molecule, result) VALUES
  ('O=C(NO)c1cccc(-n2cc(CSc3ccccc3)nn2)c1', '> 100 µM'),
  ('COC(=O)c1ccc(CNC(=O)[C@H](CC(C)C)NC(=O)[C@@H](O)[C@H](N)Cc2ccccc2)cc1.Cl', '> 10 µM'),
  ('Nc1cc(F)ccc1NC(=O)c1ccc(NC(=O)C2CC2c2ccccc2)cc1 (centres undefined)', '> 10 µM');

Attention now shifts to the item below.
Lookup: Please provide the recorded IC50 for O=C(CCCN1CCC(N2CC(=O)N3C(Cc4c([nH]c5ccccc45)C3c3ccc4c(c3)OCO4)C2=O)CC1)NO (centres undefined) , tested on Histone deacetylase 2 (Homo sapiens, UniProt Q92769).
Found: > 2.5 µM
